B1: Vang-like protein 2 (Homo sapiens), Q9ULK5 (parent)
chain: MDTESQYSGYSYKSGHSRSSRKHRDRRDRHRSKSRDGGRGDKSVTIQAPGEPLLDNESTRGDERDDNWGETTTVVTGTSEHSISHDDLTRIAKDMEDSVPLDCSRHLGVAAGATLALLSFLTPLAFLLLPPLLWREELEPCGTACEGLFISVAFKLLILLLGSWALFFRRPKASLPRVFVLRALLMVLVFLLVVSYWLFYGVRILDARERSYQGVVQFAVSLVDALLFVHYLAVVLLELRQLQPQFTLKVVRSTDGASRFYNVGHLSIQRVAVWILEKYYHDFPVYNPALLNLPKSVLAKKVSGFKVYSLGEENSTNNSTGQSRAVIAAAARRRDNSHNEYYYEEAEHERRVRKRRARLVVAVEEAFTHIKRLQEEEQKNPREVMDPREAAQAIFASMARAMQKYLRTTKQQPYHTMESILQHLEFCITHDMTPKAFLERYLAAGPTIQYHKERWLAKQWTLVSEEPVTNGLKDGIVFLLKRQDFSLVVSTKKVPFFKLSEEFVDPKSHKFVMRLQSETSV
partner: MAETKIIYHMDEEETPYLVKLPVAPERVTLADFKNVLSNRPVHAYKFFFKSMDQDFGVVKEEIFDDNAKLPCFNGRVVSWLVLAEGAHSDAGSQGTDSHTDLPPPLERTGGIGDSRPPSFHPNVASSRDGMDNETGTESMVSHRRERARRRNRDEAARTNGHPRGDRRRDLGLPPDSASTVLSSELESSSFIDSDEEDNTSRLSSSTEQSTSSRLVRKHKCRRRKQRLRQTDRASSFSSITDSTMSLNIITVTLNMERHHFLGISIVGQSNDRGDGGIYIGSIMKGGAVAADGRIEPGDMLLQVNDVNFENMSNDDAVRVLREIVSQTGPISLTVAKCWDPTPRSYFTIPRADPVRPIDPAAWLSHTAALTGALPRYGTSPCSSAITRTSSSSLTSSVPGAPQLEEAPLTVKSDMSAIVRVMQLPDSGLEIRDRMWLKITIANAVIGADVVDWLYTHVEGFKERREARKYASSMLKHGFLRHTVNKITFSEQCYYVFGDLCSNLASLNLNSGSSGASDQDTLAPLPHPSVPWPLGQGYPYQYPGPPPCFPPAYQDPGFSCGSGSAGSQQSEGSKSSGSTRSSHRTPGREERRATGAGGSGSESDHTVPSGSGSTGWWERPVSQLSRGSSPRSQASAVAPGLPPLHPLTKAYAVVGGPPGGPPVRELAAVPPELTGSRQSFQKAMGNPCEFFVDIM

Variants of: B1
reported.conditions: with dvl1_mouse Dvl1, P51141
reported.property: effect of a mutation on the interaction

F437S ... disrupting interaction
D255E ... disrupting interaction
S464N ... disrupting interaction

This collection of values is drawn from IntAct's records for PubMed 20558380.
